# Subject Of Test: UniProtKB Q9P979
# Sequence (Q9P979 other isoform, or with tags, fused parts or gaps): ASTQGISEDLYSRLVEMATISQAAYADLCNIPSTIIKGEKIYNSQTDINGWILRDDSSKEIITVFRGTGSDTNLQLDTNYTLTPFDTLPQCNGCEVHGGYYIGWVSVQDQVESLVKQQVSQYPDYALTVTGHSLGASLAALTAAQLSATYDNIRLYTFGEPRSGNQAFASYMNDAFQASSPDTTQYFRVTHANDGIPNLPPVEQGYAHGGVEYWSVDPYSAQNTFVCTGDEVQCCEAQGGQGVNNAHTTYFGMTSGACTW
# Run Description: API-20 enzyme test strip, substrate specificity for 38 kD esterase (Table 2)
# Type: biochemical, Aspergillus niger
# Measurement Setup: API-20 strip, pH 5.4
Measured Endpoint: Activity

{"columns": ["Compound", "Recorded Result"],
 "data": [
  ["OC[C@H]1O[C@H](Oc2ccc3cc(Br)ccc3c2)[C@H](O)[C@@H](O)[C@H]1O [6-Br-2-naphthyl-αD-galactopyranoside]", "(+++)"],
  ["OC[C@H]1O[C@H](Oc2ccc3ccccc3c2)[C@H](O)[C@@H](O)[C@@H]1O [2-naphthyl-αD-glucopyranoside]", "(+)"],
  ["O=P(O)(O)Oc1ccc2ccccc2c1 [2-naphthyl phosphate]", "(+)"],
  ["OC[C@H]1O[C@@H](Oc2ccc3ccccc3c2)[C@H](O)[C@@H](O)[C@H]1O [2-naphthyl-βD-galactopyranoside]", "(++)"],
  ["OC[C@H]1O[C@@H](Oc2ccc3cc(Br)ccc3c2)[C@H](O)[C@@H](O)[C@@H]1O [6-Br-2-naphthyl-βD-glucopyranoside]", "(+++)"],
  ["COc1ccccc1NC(=O)c1cc2cc(Br)ccc2cc1OP(=O)(O)O [Naphthol-AS-BI-phosphate]", "(++)"]
]}
